Origin of values: patent US4304833A

assay: bleaching rate (T 1/2) at pH=12 in buffer, visible spectrometer; assay type: physicochemical; settings: pH=12 buffer (aqueous), at λmax given
compounds and their reported T 1/2 (pH = 12)
Note: unit sec. is implicit; provide only the numeric part.

Recorded results for 4 compounds are shown here.
* COC1=CC(=C(c2cc(OC)c(O)c(OC)c2)c2ccccc2COC(=O)COc2ccccc2)C=C(OC)C1=O [Example 41] | 18
* COCC(=O)OCc1ccccc1C(=C1C=C(OC)C(=O)C(OC)=C1)c1cc(OC)c(O)c(OC)c1 [Example 39] | 44
* COC1=CC(=C(c2cc(OC)c(O)c(OC)c2)c2ccccc2S(=O)(=O)N(C)C(=O)OCCS(C)(=O)=O)C=C(OC)C1=O [Example 21] | 2
* COC1=CC(=C(c2cc(OC)c(O)c(OC)c2)c2ccccc2S(=O)(=O)N(C)C(C)=O)C=C(OC)C1=O [Example 23] | 158

Proceeding to the next compound to report its T 1/2 (pH = 12).
## Input Please report the recorded T 1/2 (pH = 12) for CC1=CC(=C(c2cc(C)c(O)c(C)c2)c2ccccc2S(=O)(=O)N(C)C(=O)OCCS(C)(=O)=O)C=C(C)C1=O [Example 24] .
## Output 2
